Attribution: the supplement of paper PMC3334620

assayed-target: Msn1 (UniProt P22148)
Sequence: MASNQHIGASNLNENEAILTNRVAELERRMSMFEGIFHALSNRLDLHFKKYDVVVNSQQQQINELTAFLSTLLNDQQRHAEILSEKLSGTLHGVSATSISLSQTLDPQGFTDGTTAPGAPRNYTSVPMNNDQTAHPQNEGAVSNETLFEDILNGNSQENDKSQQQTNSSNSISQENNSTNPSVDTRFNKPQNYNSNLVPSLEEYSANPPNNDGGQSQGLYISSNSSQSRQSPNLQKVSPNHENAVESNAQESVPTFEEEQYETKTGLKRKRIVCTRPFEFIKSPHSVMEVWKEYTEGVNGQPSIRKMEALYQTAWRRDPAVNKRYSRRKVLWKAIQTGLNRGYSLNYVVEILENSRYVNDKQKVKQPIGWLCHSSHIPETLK
procedure-text: PBM E-score (8-mer binding enrichment) (E-score (-0.5 to 0.5)); higher = stronger / more preferred TF binding
condition-context: protein concentration: 200 nM; construct: GST-full length
The full ranking holds about 33,000 sequences; the median of “E-score (-0.5 to 0.5)” is about -0.013, and the highest 2% start at about 0.3. This is one part of a sample in which the highest values are shown more often than they occur.
# binarize PBM E-score: threshold 0.1 inclusive, high side yes, low side no

Query: Textbook exercise: given the entry `CCATTAAC` , state whether its PBM E-score is greater than or equal to 0.1.
Reply: yes

Query: What about `TCTAGACA` ?
Reply: yes

Query: Try the sequence `AGTCCCAA`
Reply: yes

Query: What do you get for `TGTCCCAA` ?
Reply: yes

Query: Also need `CCATTGTA` , thanks.
Reply: yes

Query: What do you have for `CGTCCCAA` ?
Reply: yes

Query: Next sequence: `GCATGTCC`
Reply: yes

Query: Another sequence to check: `CCGTTGAA`
Reply: no

Query: # iterate: `AGGGGACC`
Reply: no

Query: Next sequence: `CCATGTAC`
Reply: yes

Query: Next sequence up: `CATGTCCA`
Reply: yes

Query: Also, `TCTGTCCA` please.
Reply: yes

Query: Similarly, `CTGTCTAA` ?
Reply: yes

Query: Here is the next sequence: `CCATTGTC`
Reply: yes

Query: One more sequence: `CCAGCTAG`
Reply: no

Query: # repeat for `CTGTCTAC`
Reply: no

Query: Do the same for `AGGTCTAG` please
Reply: no

Query: Item: `CGCAGACG`
Reply: no

Query: Same question for `CTATTGTC` please.
Reply: yes

Query: Ok, now `ACCGATGC`
Reply: no

Query: Param item: `ACATTGTA`
Reply: yes

Query: Queued: `GTTCGAGA`
Reply: yes

Query: Input `GCTTGTCA`
Reply: yes

Query: Same for `ATGTCTAG`
Reply: yes

Query: Please do the same for `AGCAGACA` as well.
Reply: no

Query: Next sequence: `GAATGTGA`
Reply: no

Query: Also, `GCTTGTCC` please.
Reply: yes

Query: Same question, `CGTATGTC` this time
Reply: yes

Query: Lookup `TAATGTCA`
Reply: yes

Query: Input `GATAGACC`
Reply: no

Query: Now consider `ACATTGTC` .
Reply: yes

Query: Then this sequence: `ACCATAAA`
Reply: yes

Query: Same again, this time with `GACCCGAC`
Reply: no

Query: What do you have for `AATGGTTG` ?
Reply: no

Query: Next: `AATACTCT`
Reply: no

Query: Next record, please: `GATAGACA`
Reply: yes

Query: Follow-up entry: `CATTTGTC`
Reply: yes

Query: Also `GAAATGGA` , if possible.
Reply: no

Query: Same lookup for `ATATTGTC` , please.
Reply: yes

Query: Repeat for the following sequence: `CATTTGCC`
Reply: no

Query: Moving on to `CGTGTTAA`
Reply: no

Query: // same read-out, input: `GAGTCATC`
Reply: no

Query: Now this one: `ACATGTCC`
Reply: yes

Query: Can you handle `AATCGATG` next?
Reply: yes

Query: Cool, now `AGTATGTC`
Reply: yes

Query: Please answer likewise for `AATAGACA`
Reply: yes

Query: Next sequence up: `CCATGTCA`
Reply: yes

Query: Also need `CAATGCAG` , thanks.
Reply: no

Query: Same for `AATTTGTA`
Reply: yes

Query: Please do the same for `TACAGCAA` as well.
Reply: no

Query: Can you check `ATGTCTAA` next?
Reply: yes

Query: Same thing, different sequence: `GCATGTAC`
Reply: yes

Query: Would you mind doing `CTGACACA` as well?
Reply: no

Query: Lookup `GCTTTCGA`
Reply: no

Query: Please answer likewise for `AAACATGT`
Reply: yes

Query: Again, but for `AGTGGTCG`
Reply: no

Query: Now consider `ATCCCGTC` .
Reply: no

Query: Please answer likewise for `GCTGTCCA`
Reply: yes

Query: Try this sequence next: `CGGACACA`
Reply: yes

Query: Please give the result for `AAATGTCA` too.
Reply: yes

Query: Now consider `ACTTGTCA` .
Reply: yes

Query: Next: `ACTTGTGA`
Reply: no

Query: What about `GTCTCAAC` ?
Reply: yes

Query: For `AGGCAACA` then?
Reply: no

Query: What about `CCTGTCCA` ?
Reply: yes

Query: Entry `CGGACACG` please
Reply: yes

Query: Also `GGTTTGTA` ?
Reply: no

Query: Repeat with `AAATGTTA`
Reply: yes

Query: What do you get for `CCATTGGC` ?
Reply: no

Query: Input `GGCAGACA`
Reply: no

Query: Also `GATTTTCA` , if possible.
Reply: yes

Query: Now the same for `AGCTCTTA`
Reply: no

Query: Now try `CGACCGCG` .
Reply: no

Query: And `AAATGTAA` ?
Reply: yes

Query: Another sequence to check: `GATTTGTA`
Reply: yes

Query: What do we get for `ACTTGTCT` ?
Reply: yes

Query: // repeat for `ACTCGTAC` and report
Reply: no

Query: Please give the result for `CGTATGGC` too.
Reply: no

Query: Param item: `ACTTGGCT`
Reply: no

Query: Same again, this time with `CCGAACGC`
Reply: yes

Query: What do we get for `GATGTCCC` ?
Reply: yes

Query: Please answer likewise for `ACTTGTAT`
Reply: yes

Query: Param item: `GGAGGGCC`
Reply: no

Query: Quick one: `GTTAGAAA`
Reply: no

Query: Thanks! And `CGTGTACA` ?
Reply: yes

Query: Moving on to the next sequence: `CGCAGACC`
Reply: no

Query: Again, but for `ACTTGTCC`
Reply: yes

Query: What do you get for `CATTTGGC` ?
Reply: no

Query: And for `CGGCGACA` ?
Reply: no

Query: Try the sequence `ACCTAAAA`
Reply: no

Query: Try the sequence `ACATGTTC`
Reply: yes
